# STUDY SYSTEM: T1, Human TIM-3 Human Fc tagged protein (human, fluorescently labeled with HiLyte Fluor 555 (sites not given))
# T1 construct: Bought construct; also called TIM-3 protein tagged with human Fc; ACROBiosystems catalog no: TM3-H5258
# PROTOCOL: capture slide probed with labeled TIM-3-Fc;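 further: IgG from single CD138-enriched plasma cells, isolated from lymphocytes, immobilized on a derivatized glass slide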
METRIC: binding result

SCT-Fa171 (antibody, V domains shown, murine IgG) VH: QVQLQQSGAELARPGASVKLSCKASGYTFTNYGISWVKQRTGQGLEWIGEIYPRSGNSYYNEKFKGKATLTADKSSSTAYMELRSLTSEDSAVYFCARSTAIVAGGFDYWGQGTTLTVSS VL: DIVMTQSPSSLTVTAGEKVTMSCKSSQSLLNSRIQKNSLTWYQQKPGQPPKLLIYWASTRESGVPDRFTASGSGTDFTLTISSVQAEDLAVYYCQNDYTYPWTFGGGTKLEIK	binds
SCT-Fa151 (antibody, V domains shown, murine IgG) VH: QVQLQQPGSELVRPGTSVKLSCKASGYTFTSYWMHWVKQRPGQGLEWIGVIDPSDNNTHYNQKFTGKATLTVDTSSSTAYMHLSSLTSEDSAVFYCARNDYDGGYFDFWGQGTTLTVSS VL: DVVMTQTPLSLPVSLGDHASISCRSSQSLVHSNGHTYLHWYLQKPGQSPKLLIDKVSNRFSGVPDRFSGSGSGTDFTLKISRVEAEDLGVYFCSQSTHVPWTFGGGTKLEIK	binds

Reference source for all entries: patent US20230279105A1
